Record type: Kd measurement. Applies to: BCL6 BTB domain (Homo sapiens (Human), UniProt P41182)
Answers are plain numbers, in nM.

Consider the worked cases shown below.
>  <Compound>
Cn1ccc2c(c(-c3cc(Cl)c(O)c(C(N)=O)c3)cn2CC(=O)Nc2cc(N3CCOCC3)ncc2Cl)c1=O

>  <Kd [nM]>
265

$$$$
>  <Compound>
C[C@H]1CNCCN1c1cc(NC(=O)Cn2cc(-c3cc(C(N)=O)c(O)c4c3OCO4)c3c(=O)n(C)cnc32)c(Cl)c(F)n1

>  <Kd [nM]>
3.29

$$$$
>  <Compound>
CN1CC2CC(C1)N2c1cc(NC(=O)Cn2cc(-c3cc(Cl)c(O)c(C(N)=O)c3)c3c(=O)n(C)cnc32)c(Cl)cn1

>  <Kd [nM]>
60.3

$$$$

For the 3 compounds below, give their Kd values.
1. CN(C1CCC(c2cc(NC(=O)Cn3cc(-c4cc(Cl)c(O)c(C(N)=O)c4)c4c(=O)n(C)cnc43)c(Cl)cn2)C1)S(C)(=O)=O (stereo not drawn) [Compound I-148]
2. Cn1cnc2c(c(-c3cc(Cl)c(O)c(C(N)=O)c3)cn2CC(=O)Nc2cc(N3CCN4CCOCC4C3)ncc2Cl)c1=O (stereo not drawn)
3. Cc1nc2c(c(-c3cc(C(N)=O)c(O)c(F)c3F)cn2CC(=O)Nc2cc(N3CCN(C4COC4)C[C@@H]3C)ncc2Cl)c(=O)n1C

1: 20.9; 2: 8; 3: 13.8

###

Biological target: BCL6 BTB domain (Homo sapiens (Human))
Measured property: pKd
Answers are plain numbers, as −log10 of the molar value.

Consider the worked cases shown below.
>  <Compound>
CN(C1CCC(c2cc(NC(=O)Cn3cc(-c4cc(Cl)c(O)c(C(N)=O)c4)c4c(=O)n(C)cnc43)c(Cl)cn2)C1)S(C)(=O)=O (stereo not drawn) [Compound I-149]

>  <pKd>
7.79

$$$$
>  <Compound>
Cn1cnc2c(c(-c3cc(Cl)c(O)c(C(N)=O)c3)cn2CC(=O)Nc2cc(N3CC4CC4C3)ncc2Cl)c1=O (stereo not drawn)

>  <pKd>
7.49

$$$$
>  <Compound>
CN1CC2CC1CN2c1cc(NC(=O)Cn2cc(-c3cc(C(N)=O)c(O)c(F)c3F)c3c(=O)n(C)cnc32)c(Cl)cn1 (stereo not drawn)

>  <pKd>
6.58

$$$$
>  <Compound>
CN1CCN(c2ccc(Cl)c(NC(=O)Cn3cc(-c4cc(Cl)c(O)c(C(N)=O)c4)c4c(=O)n(C)cnc43)n2)CC1

>  <pKd>
6.37

$$$$

For the 2 compounds below, give their pKd values.
1. Cn1cnc2c(c(-c3cc(Cl)c(O)c(C(N)=O)c3)cn2CC(=O)Nc2cc(N3C4CCC3CC4)ncc2Cl)c1=O
2. Cn1cnc2c(c(-c3cc(Cl)c(O)c(C(N)=O)c3)cn2CC(=O)Nc2cc(N3C[C@H]4CCO[C@H]4C3)ncc2Cl)c1=O

[7.52, 8.70]

###

Record type: Kd measurement. Applies to: BCL6 BTB domain (Homo sapiens (Human))
One number for each entry, in nM.

For the 6 compounds below, give their Kd values.
1. Cc1nc2cc(Cl)c(NC(=O)Cn3cc(-c4cc(C(N)=O)c(O)c(F)c4F)c4c(=O)n(C)cnc43)cc2o1
2. Cn1cnc2c(c(-c3cc(Cl)c(O)c(C(N)=O)c3)cn2CC(=O)Nc2ccc(F)cc2Cl)c1=O
3. Cn1cnc2c(c(-c3cc(C(N)=O)c(O)c(Cl)c3F)cn2CC(=O)Nc2cc(N3CCOCC3)ncc2F)c1=O
4. CC(C1CC1)N1CCN(c2cc(NC(=O)Cn3cc(-c4cc(F)c(O)c(C(N)=O)c4)c4c(=O)n(C)cnc43)c(Cl)cn2)[C@@H](C)C1 (stereo partly drawn)
5. C[C@H]1COCCN1c1cc(NC(=O)Cn2cc(-c3cc(F)c(O)c(C(N)=O)c3)c3c(=O)n(C)cnc32)c(Cl)cn1
6. CC(C)[C@H]1CN(C)CCN1c1cc(NC(=O)Cn2cc(-c3cc(C(N)=O)c(O)c(F)c3F)c3c(=O)n(C)cnc32)c(Cl)cn1

1. 468
2. 460
3. 323
4. 7.26
5. 6.1
6. 70.8

###

Record type: Kd measurement. Applies to: BCL6 BTB domain (Homo sapiens (Human))
Give bare numbers, in µM.

Consider the worked cases shown below.
>  <Line notation>
Cc1nc2c(c(-c3cc(C(N)=O)c(O)c4c3OCO4)cn2CC(=O)Nc2cc(N3CCNC[C@@H]3C)nc(F)c2Cl)c(=O)n1C

>  <System under test>
BCL6 BTB domain (Homo sapiens (Human))

>  <Kd [µM]>
0.00232

$$$$
>  <Line notation>
Cn1cnc2c(c(-c3cc(Cl)c(O)c(C(N)=O)c3)cn2CC(=O)Nc2cc(N3CCOCC3(C)C)ncc2Cl)c1=O

>  <System under test>
BCL6 BTB domain (Homo sapiens (Human))

>  <Kd [µM]>
0.0284

$$$$

Now for a further molecule.
// Kd value for `C[C@H]1COCCN1c1cc(NC(=O)Cn2cc(-c3cc(F)c(O)c(C(N)=O)c3)c3c(=O)n(C)ccc32)c(Cl)cn1` : 0.066

###

Record type: Kd measurement. Applies to: BCL6 BTB domain (Homo sapiens (Human), UniProt P41182)

Consider the worked cases shown below.
>  <Compound>
Cn1cnc2c(c(-c3cc(Cl)c(O)c(C(N)=O)c3)cn2CC(=O)Nc2nc(N3CCOCC3)c(F)cc2Cl)c1=O [Compound I-328]

>  <System under test>
BCL6 BTB domain (Homo sapiens (Human), UniProt P41182)

>  <Measured result>
239 nM

$$$$
>  <Compound>
CN1CCC2(C1)CN(c1cc(NC(=O)Cn3cc(-c4cc(F)c(O)c(C(N)=O)c4)c4c(=O)n(C)cnc43)c(Cl)cn1)C2 [Compound I-486]

>  <System under test>
BCL6 BTB domain (Homo sapiens (Human), UniProt P41182)

>  <Measured result>
30 nM

$$$$

// Kd value for CN1CCOC2CN(c3cc(NC(=O)Cn4cc(-c5cc(Cl)c(O)c(C(N)=O)c5)c5c(=O)n(C)c(C(F)(F)F)nc54)c(Cl)cn3)CC21 (stereo not drawn) [Compound I-395] : 48.3 nM

###

Give measured pKd for each item. Keep answers brief.
Biological target: BCL6 BTB domain (Homo sapiens (Human), UniProt P41182)
Answers are plain numbers, as −log10 of the molar value.

Consider the worked cases shown below.
>  <Molecule>
Cc1c(O)c(C(N)=O)cc(-c2cn(CC(=O)Nc3cc(N4C[C@@H](C)O[C@@H](C)C4)ncc3Cl)c3ncn(C)c(=O)c23)c1F [Compound I-119]

>  <Measured property>
pKd

>  <Measured result>
5.40

$$$$
>  <Molecule>
Cc1cc(NC(=O)Cn2cc(-c3cc(C(N)=O)c(O)c(F)c3F)c3c(=O)n(C)cnc32)c(Cl)cn1 [Compound I-333]

>  <Measured property>
pKd

>  <Measured result>
6.84

$$$$
>  <Molecule>
CN1CC2CCC(C1)N2c1cc(NC(=O)Cn2cc(-c3cc(C(N)=O)c(O)c(F)c3F)c3c(=O)n(C)cnc32)c(Cl)cn1 [Compound I-320]

>  <Measured property>
pKd

>  <Measured result>
7.32

$$$$
>  <Molecule>
CCN1CCN(c2cc(NC(=O)Cn3cc(-c4cc(C(N)=O)c(O)c(F)c4F)c4c(=O)n(C)cnc43)c(Cl)c(F)n2)[C@@H](C)C1 [Compound I-426]

>  <Measured property>
pKd

>  <Measured result>
7.75

$$$$
>  <Molecule>
CCN1CCN(c2cc(NC(=O)Cn3cc(-c4cc(C(N)=O)c(O)c(F)c4F)c4c(=O)n(C)c(C)nc43)c(Cl)cn2)[C@@H](C)C1 [Compound I-435]

>  <Measured property>
pKd

>  <Measured result>
7.31

$$$$

For the 4 molecules below, give their pKd values.
1. CO[C@@H]1CC(c2cc(NC(=O)Cn3cc(-c4cc(Cl)c(O)c(C(N)=O)c4)c4c(=O)n(C)cnc43)c(Cl)c(F)n2)C[C@@H]1F (stereo partly drawn) [Compound I-440]
2. COC[C@H]1COCCN1c1cc(NC(=O)Cn2cc(-c3cc(Cl)c(O)c(C(N)=O)c3)c3c(=O)[nH]cnc32)c(Cl)cn1 [Compound I-164]
3. Cn1cnc2c(c(-c3cc(C(N)=O)c(O)c(F)c3F)cn2CC(=O)Nc2cc(N3C[C@H]4CC[C@@H](C3)N4CC(F)(F)F)ncc2Cl)c1=O [Compound I-475]
4. C[C@@H]1CN(c2cc(NC(=O)Cn3cc(-c4cc(F)c(O)c(C(N)=O)c4)c4c(=O)n(C)cnc43)c(Cl)cn2)C[C@H](C)N1 [Compound I-218]

1. 7.80
2. 8.11
3. 7.30
4. 7.79
